Where these numbers come from: PubChem BioAssay

# METHOD DESCRIPTION: inhibitors of hydroxyurea-induced Chk1 phosphorylation, primary screen, imaging, HeLa, phospho-Chk1 nuclear intensity (AID 1187); further: test concentration not given here
# EXPERIMENTAL SETUP: hydroxyurea-induced phospho-Chk1 immunofluorescence imaging, higher = more signal
Label Condition met when z-score is at or above 0.4; anything below gets Condition not met.

INSERT INTO measurements (compound, assigned_class) VALUES
  ('COc1ccc(C#Cc2ccc3c(c2)[C@]2(C(=O)N3)[C@H](c3ccc(O)cc3)N3[C@H](c4ccccc4)[C@H](c4ccccc4)OC(=O)[C@H]3[C@@H]2C(=O)NC[C@H](O)c2ccccc2)cc1', 'Condition not met'),
  ('CS(=O)(=O)CCOC(=O)C1=CC(CCCO)=CC(c2cccs2)N(Cc2cc3c(cc2Br)OCO3)C=C1C(=O)OCCS(C)(=O)=O (configuration not stated)', 'Condition not met'),
  ('O=C1OCCC=C[C@H]2OC34C=CCN(Cc5ccccc5)C(=O)[C@H]3N(CCCCCCO)C(=O)[C@@H]4C12 (some centres not stated)', 'Condition met'),
  ('CN(C)CCCCCCNC(=O)[C@H]1C[C@H]2C(=O)N[C@@H](CCCCN)C(=O)N2[C@H]1c1ccc(O)cc1', 'Condition met'),
  ('COC(=O)[C@@]1(Cc2ccc(OC)cc2)[C@H]2c3cc(C(=O)N4CCCC4)n(CCc4c[nH]c5cc(F)ccc45)c3C[C@H]2CN1C(=O)c1ccccc1', 'Condition met'),
  ('Cc1ccc([C@H]2C(C(=O)O)=C[C@@H](C)N2S(=O)(=O)c2ccc(C)cc2)cc1', 'Condition not met'),
  ('C=CC[C@@]1(C(=O)NCC(O)CO)N=C(c2ccc(OCCCO)cc2)O[C@@H]1c1ccccc1N=[N+]=[N-] (some centres not stated)', 'Condition not met');
